- Test system: BRK-4B-Bcl-2 cells
- Procedure text: Clonogenic assay, BRK-4B-Bcl-2
- Format: cell-based, rat
- Cond: 15 days, read-out: IC50 clonogenic assay (colonies counted)
pIC50: −log10 of the molar value.
Property: pIC50

Request: Consider the molecule shown here: C=C1C(=O)OC2CC(C)=C(C(C)CCCOC(C)=O)C(OC(C)=O)C12 (stereo not shown) What is its recorded pIC50?
Result: ~6.70
